test system: HEK293T (UBE3A T485A transfected, BAR Wnt reporter); assay: Wnt reporter firefly/Renilla luciferase ratio relative to plate median (fold (linear ratio)); higher = more Wnt/beta-catenin reporter activation; conditions: concentration: 0.01 uM; 24 h
The full ranking holds about 1,100 compounds; the median of “Wnt reporter firefly/Renilla luciferase ratio relative to plate median” is about 1.1, and the highest 2% start at about 1.6. This excerpt belongs to a sample that is enriched for the highest values.
Use 1 as the dividing line for Wnt reporter firefly/Renilla luciferase ratio, with the line itself on the t side and lower values as f.

molecule=Nc1c(Cl)cc([N+](=O)[O-])cc1Cl target="HEK293T (UBE3A T485A transfected, BAR Wnt reporter)" assigned_class=t
molecule=CCOC(=O)COc1cc(-c2nn(C)c(OC(F)F)c2Cl)c(F)cc1Cl target="HEK293T (UBE3A T485A transfected, BAR Wnt reporter)" assigned_class=t
molecule="COC(=CC(N)=O)C(C)C(C=Cc1csc(-c2csc(C(C)C=CC=CC(C)C)n2)n1)OC (centres undefined)" target="HEK293T (UBE3A T485A transfected, BAR Wnt reporter)" assigned_class=t
molecule="CCOC(=O)C(Cl)Cc1cc(-n2nc(C)n(C(F)F)c2=O)c(F)cc1Cl (centres undefined)" target="HEK293T (UBE3A T485A transfected, BAR Wnt reporter)" assigned_class=t
molecule=CCNc1nc(Cl)nc(NC(C)C)n1 target="HEK293T (UBE3A T485A transfected, BAR Wnt reporter)" assigned_class=t
molecule=COP(=O)(OC)SCn1c(=O)oc2cc(Cl)cnc21 target="HEK293T (UBE3A T485A transfected, BAR Wnt reporter)" assigned_class=f
molecule="CCCCC(CC)COC(=O)c1ccccc1C(=O)O (centres undefined)" target="HEK293T (UBE3A T485A transfected, BAR Wnt reporter)" assigned_class=t
molecule=O=C(O)c1nc(Cl)ccc1Cl target="HEK293T (UBE3A T485A transfected, BAR Wnt reporter)" assigned_class=t
molecule=O=[N+]([O-])c1c(Cl)c(Cl)c(Cl)c(Cl)c1Cl target="HEK293T (UBE3A T485A transfected, BAR Wnt reporter)" assigned_class=f
molecule=O=C(O)C(F)(F)C(F)(F)C(F)(F)C(F)(F)C(F)(F)C(F)(F)C(F)(F)F target="HEK293T (UBE3A T485A transfected, BAR Wnt reporter)" assigned_class=t
molecule=C=C(C)[C@H]1Cc2c(ccc3c2O[C@@H]2COc4cc(OC)c(OC)cc4[C@@H]2C3=O)O1 target="HEK293T (UBE3A T485A transfected, BAR Wnt reporter)" assigned_class=f
molecule="N#Cc1nn(-c2c(Cl)cc(C(F)(F)F)cc2Cl)c(N)c1S(=O)C(F)(F)F (centres undefined)" target="HEK293T (UBE3A T485A transfected, BAR Wnt reporter)" assigned_class=f
molecule=NCCO.O=C(O)c1nc(Cl)ccc1Cl target="HEK293T (UBE3A T485A transfected, BAR Wnt reporter)" assigned_class=f
molecule=O=C(O)c1c(Cl)ccc2cc(Cl)cnc12 target="HEK293T (UBE3A T485A transfected, BAR Wnt reporter)" assigned_class=t
molecule=CCc1nn(C)c(C(=O)NCc2ccc(C(C)(C)C)cc2)c1Cl target="HEK293T (UBE3A T485A transfected, BAR Wnt reporter)" assigned_class=f
molecule=CC(C)N1C(=O)N(c2ccccc2)CSC1=NC(C)(C)C target="HEK293T (UBE3A T485A transfected, BAR Wnt reporter)" assigned_class=t
molecule=CON(C)C(=O)Nc1ccc(Cl)c(Cl)c1 target="HEK293T (UBE3A T485A transfected, BAR Wnt reporter)" assigned_class=t
molecule="COS(=O)(=O)[O-].Cn1c(-c2ccccc2)cc(-c2ccccc2)[n+]1C [Difenzoquat metilsulfate]" target="HEK293T (UBE3A T485A transfected, BAR Wnt reporter)" assigned_class=f
molecule=CCC(=O)Nc1ccc(Cl)c(Cl)c1 target="HEK293T (UBE3A T485A transfected, BAR Wnt reporter)" assigned_class=t

---

tested on: HEK293T (UBE3A T485A transfected, BAR Wnt reporter); experiment: Wnt reporter firefly/Renilla luciferase ratio relative to plate median (fold (linear ratio)); higher = more Wnt/beta-catenin reporter activation; conditions: concentration: 10 uM; 24 h
Whole data set: some 1,100 compounds, median “Wnt reporter firefly/Renilla luciferase ratio relative to plate median” near 1.1, cut for the highest 2% near 1.6. Only a selection was taken, and the highest values are over-represented in it overall.
Kindly return satisfied if reported Wnt reporter firefly/Renilla luciferase ratio is no lower than 1; return not satisfied if it is lower.

compound="C=CCOC(=O)c1ccccc1C(=O)OCC=C [Diallyl phthalate]" target="HEK293T (UBE3A T485A transfected, BAR Wnt reporter)" assigned_class=satisfied
compound=O=S(=O)([O-])C(F)(F)C(F)(F)C(F)(F)C(F)(F)F.[K+] target="HEK293T (UBE3A T485A transfected, BAR Wnt reporter)" assigned_class=satisfied
compound=Cc1ccccc1O target="HEK293T (UBE3A T485A transfected, BAR Wnt reporter)" assigned_class=satisfied
compound=COC(=O)Nc1nc2ccccc2[nH]1 target="HEK293T (UBE3A T485A transfected, BAR Wnt reporter)" assigned_class="not satisfied"
compound="N#CC(CCc1ccc(Cl)cc1)(Cn1cncn1)c1ccccc1 (stereo not given)" target="HEK293T (UBE3A T485A transfected, BAR Wnt reporter)" assigned_class="not satisfied"
compound="COc1cccc(NCC(F)Cn2c3ccc(Br)cc3c3cc(Br)ccc32)c1 (stereo not given)" target="HEK293T (UBE3A T485A transfected, BAR Wnt reporter)" assigned_class="not satisfied"
compound=Oc1ccc(Cl)cc1Cc1ccccc1 target="HEK293T (UBE3A T485A transfected, BAR Wnt reporter)" assigned_class="not satisfied"
compound="CCON=C(CC)C1=C(O)CC(c2c(C)cc(C)cc2C)CC1=O (stereo not given)" target="HEK293T (UBE3A T485A transfected, BAR Wnt reporter)" assigned_class=satisfied
compound="CCOC(=O)C(C)OC(=O)c1cc(Oc2ccc(C(F)(F)F)cc2Cl)ccc1[N+](=O)[O-] (stereo not given)" target="HEK293T (UBE3A T485A transfected, BAR Wnt reporter)" assigned_class=satisfied
compound=CCNc1nc(Cl)nc(NC(C)(C)C#N)n1 target="HEK293T (UBE3A T485A transfected, BAR Wnt reporter)" assigned_class="not satisfied"
compound="O=C(O)CNCP(=O)(O)O [Glyphosate]" target="HEK293T (UBE3A T485A transfected, BAR Wnt reporter)" assigned_class=satisfied
compound="CCCCC(O)(Cn1cncn1)c1ccc(Cl)cc1Cl (stereo not given)" target="HEK293T (UBE3A T485A transfected, BAR Wnt reporter)" assigned_class="not satisfied"
compound="N#CSCSC#N [Methylene bis(thiocyanate)]" target="HEK293T (UBE3A T485A transfected, BAR Wnt reporter)" assigned_class=satisfied
compound="CN(C)C(=O)Cl [Dimethylcarbamoyl chloride]" target="HEK293T (UBE3A T485A transfected, BAR Wnt reporter)" assigned_class=satisfied
compound=O=S(=O)([O-])C(F)(F)C(F)(F)C(F)(F)C(F)(F)C(F)(F)C(F)(F)C(F)(F)C(F)(F)F.[K+] target="HEK293T (UBE3A T485A transfected, BAR Wnt reporter)" assigned_class=satisfied
compound=Cn1cc(-c2ccccc2)c(=O)c(-c2cccc(C(F)(F)F)c2)c1 target="HEK293T (UBE3A T485A transfected, BAR Wnt reporter)" assigned_class="not satisfied"

---

tested on: HEK293T (UBE3A T485A transfected, BAR Wnt reporter); assay: Wnt reporter firefly/Renilla luciferase ratio relative to plate median (fold (linear ratio)); higher = more Wnt/beta-catenin reporter activation; conditions: concentration: 100 uM; 24 h
In all, about 1,100 compounds were measured (“Wnt reporter firefly/Renilla luciferase ratio relative to plate median”: median about 1.1, highest 2% from about 1.6 on). The sample holds the highest values, similar compounds and a random draw of the others, so the mix is not that of the screen.
Binary classification by Wnt reporter firefly/Renilla luciferase ratio, with 1 as an inclusive lower bound for TRUE; all other cases are FALSE.

compound="C#CCOS(=O)OC1CCCCC1Oc1ccc(C(C)(C)C)cc1 (centres undefined) [Propargite]" target="HEK293T (UBE3A T485A transfected, BAR Wnt reporter)" assigned_class=FALSE
compound="O=[N+]([O-])c1ccc(Oc2ccc(Cl)cc2Cl)cc1 [Nitrofen]" target="HEK293T (UBE3A T485A transfected, BAR Wnt reporter)" assigned_class=TRUE
compound=O=C(O)C(F)(F)C(F)(F)C(F)(F)C(F)(F)C(F)(F)C(F)(F)C(F)(F)C(F)(F)F target="HEK293T (UBE3A T485A transfected, BAR Wnt reporter)" assigned_class=FALSE
compound="COP(=S)(OC)Oc1ccc([N+](=O)[O-])cc1 [Methyl parathion]" target="HEK293T (UBE3A T485A transfected, BAR Wnt reporter)" assigned_class=FALSE
compound="CC(Oc1ccc(Cl)cc1Cl)C(=O)O (centres undefined) [Dichlorprop]" target="HEK293T (UBE3A T485A transfected, BAR Wnt reporter)" assigned_class=TRUE
compound="Oc1ccc(Cl)cc1Cl [2,4-Dichlorophenol]" target="HEK293T (UBE3A T485A transfected, BAR Wnt reporter)" assigned_class=TRUE
compound="O=C(O)C(F)(F)C(F)(F)C(F)(F)C(F)(F)C(F)(F)C(F)(F)F [Perfluoroheptanoic acid]" target="HEK293T (UBE3A T485A transfected, BAR Wnt reporter)" assigned_class=FALSE
